FYI, the data here is from patent US7745587.

Target: human MMP-14 (human, UniProt P50281 112-541, limits assumed)
Experiment: cell-based or functional assay
IC50 of MMP-14 inhibition (MMP-14 at 2 pM), IgG by entry:
Output spec: scalar in nM, unitless text.

M0038-E06 IgG (antibody, V domains shown) VH: EVQLLESGGGLVQPGGSLRLSCAASGFTFSPYVMHWVRQAPGKGLEWVSSISPSGGWTYYADSVKGRFTISRDNSKNTLYLQMNSLRAEDMAVYYCARGTGAYGMDVWGQGTTVTVSS VL: DIQMTQSPGTLSLSPGDRATLSCGASQLVVSNYIAWYQQKPGQAPRLLMYAGSIRATGIPDRFSGSGSGTDFTLTISRLEPEDFAIYYCQQRSNWPWTFGQGTKVEIK
7.2
M0043-G02 IgG (antibody, V domains shown, IgG of the Fab) VH: EVQLLESGGGLVQPGGSLRLSCAASGFTFSWYPMFWVRQAPGKGLEWVSGIYSSGGPTDYADSVKGRFTISRDNSKNTLYLQMNSLRAEDTAVYYCAKDTLGRYYDFWSGYSYGMDVWGQGTTVTVSS VL: DIQMTQSPGTLSLSPGERATLSCRASQSVSSSYLAWYQQKPGQAPRLLIYGASSRATGIPDRFSGSGSGTDFTLTISRLEPEDFAVYYCQSGVTFGGGTKVEIK
0.3

Task item: Using known records, supply IC50 of MMP-14 inhibition (MMP-14 at 2 pM), IgG for M0031-C02 IgG (antibody, V domains shown) VH: EVQLLESGGGLVQPGGSLRLSCAASGFTFSPYPMGWVRQAPGKGLEWVSSIVSSGGLTLYADSVKGRFTISRDNSKNTLYLQMNSLRAEDTAVYYCARGGRLYDILTGQGAPFDYWGQGTLVTVSS VL: DIQMTQSPLSLPVTPGEPASISCRSSQSLLHSNGYYYLDWYLQKPGQSPQLLIYLGSYRASGVPDRFSGSGSGTDFTLKISSVEAEDVGVYYCMQALQTPLTFGGGTRVDIK
Reply: 8
